- Tested on: MCF-7 (human breast cancer) cells
- Assay method text: Cytotoxicity MTT assay, MCF-7
- Format: cell-based
- Assay setup: 48 h incubation
Reported metric: pIC50
One number for each entry, as −log10 of the molar value.

Name the recorded pIC50 for N.N.[Cl][Pt][Cl] [Cisplatin, reference compound] .
5.93

* * *

- Test system: adult worms of S. japonicum (Chinese strain)
- Assay method text: microbe, parasite or virus in culture
- Assay setup: 100 μM, 72 h, adult worms in vitro
I'd appreciate it if you could supply Mortality (%) 72 h values for the items below.
One number for each entry, in %.

• CN(NC(=O)c1cccc(Cl)c1)c1ccc(Cl)c(Cl)c1 = 95
• CN(NC(=O)c1ccc(Cl)c(Cl)c1)c1ccc(F)cc1 = 85
• CN(NC(=O)c1ccc(Cl)c(Cl)c1)c1ccc(Cl)c(Cl)c1 = 100
• CN(NC(=O)c1ccc(Cl)c(Cl)c1)c1ccc(Br)cc1 = 100
• Cc1ccc(N(C)NC(=O)c2ccc(Cl)c(Cl)c2)cc1 = 100

Would you mind giving Mortality (%) 72 h for every molecule in the list below?
1. CN(NC(=O)c1ccc(Cl)c(Cl)c1)c1cccc(Br)c1
2. COc1ccc(C(=O)NN(C)c2ccc(Cl)c(Cl)c2)cc1

[85, 100]

* * *

- Test system: HepG2 (human liver cancer) cells
- Assay method text: Cytotoxicity MTT assay, HepG2
- Format: cell-based
- Assay setup: Homo sapiens, HepG2, 48 h incubation
- Protocol: The cytotoxicity of compounds 5, 18, and 41 against human liver cancer (HepG2) and human breast cancer (MCF-7) cell lines in vitro was evaluated using the MTT assay, with cisplatin as a positive control. […] Formazan crystals were dissolved in 100 μL DMSO per well, and absorbance at 570 nm (OD570) was measured using an ELx800 microplate reader (Bio-Tek, Winooski, VT, USA) with background subtraction. […]
Reported metric: IC50 (µM)
Answers are plain numbers, in µM.

* CN(NC(=O)c1ccc(Cl)c(Cl)c1)c1ccc(Br)cc1 [Compound 5] | 23.2

Record IC50 per entry; entries follow.
1. CN(NC(=O)c1ccc(Br)cc1)c1ccc(C(F)(F)F)c(Cl)c1 [Compound 41]
2. CN(NC(=O)c1ccc(Br)cc1)c1ccc(Cl)c(Cl)c1 [Compound 18]

1. 20.7
2. 22.6

* * *

- Tested on: adult worms of S. japonicum (Chinese strain)
- Assay method text: microbe, parasite or virus in culture
- Assay setup: Schistosoma japonicum, 72 h, read-out: LC50 (72 h)
- Description: S. japonicum cercariae (Chinese strain) were acquired from infected Oncomelania hupensis snails (Wuxi Insect Vector Biology Co., Ltd., China) ([28]). ICR mice (6–8 weeks, 22–25 g; Hunan SJA Laboratory Animal Co., Ltd., China) were percutaneously infected via abdominal exposure to 60 ± 5 cercariae. Adult schistosomes were perfused from the hepatic portal system at 35 dpi using a modified Duvall and DeWitt method ([29]). […]
Reported metric: LC50 (µM)
Numbers only, in µM.

Consider the reported LC50 for these compounds:
* CN(NC(=O)c1ccc(Cl)c(Cl)c1)c1ccc(Br)cc1 | 80.2
* O=C(Nc1ccc(Cl)c(Cl)c1)Nc1ccc(Cl)c(Cl)c1 [MMV665852, reference compound] | 12.5
* CN(NC(=O)c1ccc(Br)cc1)c1ccc(C(F)(F)F)c(Cl)c1 | 61.4
* O=C(C1CCCCC1)N1CC(=O)N2CCc3ccccc3C2C1 (centres unmarked) [PZQ, praziquantel, reference compound] | 43.8

The record that follows has no LC50 shown yet.
Any idea what LC50 was measured for CN(NC(=O)c1ccc(Br)cc1)c1ccc(Cl)c(Cl)c1 ?
83
